Tested on: LNCaP
Assay: Antiproliferative activity against human LNCAP cells after 96 hrs by Cell-Titer glo reagent based luminescence assay
Assay type: functional
Measure name: IC50 (µM)
Output spec: scalar in µM, unitless text.

[[record]]
chem_smiles = "COc1cc2c(cc1NS(=O)(=O)c1cc(Br)ccc1OC)OC(C)(C)C(=O)N2"
reported_value = 4.41

[[record]]
chem_smiles = "COc1ccc(Br)cc1S(=O)(=O)Nc1ccc2c(c1)OC(C)(C)C(=O)N2"
reported_value = 6.28

[[record]]
chem_smiles = "CC1(C)Oc2cc(NS(=O)(=O)c3ccccc3)ccc2NC1=O"
reported_value = 7.52

[[record]]
chem_smiles = "COc1ccc(Br)cc1S(=O)(=O)Nc1cc2c(cc1O)NC(=O)C(C)(C)O2"
reported_value = 7.7

[[record]]
chem_smiles = "CC1(C)Oc2cc(NS(=O)(=O)c3ccc(F)cc3Cl)ccc2NC1=O"
reported_value = 7.8


From here, focus on the item given below.
IC50 for CC1(C)Oc2cc(NS(=O)(=O)C3CCCCC3)ccc2NC1=O is 8.4
